Reference source for all entries: paper PMC9738062

Tested on: Vibrio campbellii BAA 1119 (AI-2)
Assay: Viability of the quorum-sensing reporter culture (resazurin assay), AI-2 strain
Assay type: cell-based
Conditions: BAA1119, V. campbellii BAA 1119, resazurin assay, read-out: IC50 (concentration that halved the viability)
pIC50: −log10 of the molar value.
Mark T only for pIC50 values smaller than 5; exact matches and larger values are F.

Task: Quick check: pIC50 of COc1cc([C@H]2Oc3cc([C@H]4Oc5c(Br)c(O)c(Br)c(O)c5C(=O)[C@@H]4O)ccc3O[C@@H]2CO)cc(Br)c1O [compound 21, 6,8,21-tribromosilybin A] under 5?
Output: T

Task: Item COc1cc([C@@H]2Oc3c(O)cc(-c4oc5c(Br)c(O)cc(O)c5c(=O)c4O)cc3[C@H]2CO)ccc1O [compound 18, 8-Bromo-2,3-dehydrosilychristin A] : pIC50 beneath 5, strictly?
Output: T

Task: Does this molecule meet the criterion pIC50 < 5? O=C1c2c(O)c(Br)c(O)c(Br)c2O[C@H](c2ccc(O)c(O)c2)[C@H]1O [compound 8, 6,8-dibromotaxifolin]
Output: T

Task: Report whether reported pIC50 is lower than 5 (strictly) for COc1cc([C@H]2Oc3cc([C@H]4Oc5c(Br)c(O)c(Br)c(O)c5C(=O)[C@@H]4O)ccc3O[C@@H]2CO)ccc1O [compound 12, 6,8-dibromosilybin A]
Output: T

Task: Consider the molecule O=C1c2c(cc(O)c(Br)c2O)O[C@H](c2ccc(O)c(O)c2)[C@H]1O [compound 7, 6-Bromotaxifolin] . Is its pIC50 strictly less than 5?
Output: T

Task: Hi there! Is pIC50 for O=c1[nH]cc(F)c(=O)[nH]1 [5-Fluorouracil, reference compound] below 5, do you know?
Output: F

###

Test: Ferric reducing antioxidant power (FRAP)
Conditions: Fe2+ equivalents
outcome_measure: FRAP [Fe2+eq] (Fe2+eq)
# unit: Fe2+eq | format: bare number

Task: If you can, please state the reported FRAP [Fe2+eq] value of `COc1cc([C@H]2Oc3cc([C@H]4Oc5cc(O)c(Br)c(O)c5C(=O)[C@@H]4O)ccc3O[C@@H]2CO)ccc1O` .
Output: 0.072

Task: Reported FRAP [Fe2+eq] for `COc1cc([C@H]2Oc3cc([C@H]4Oc5c(Br)c(O)c(Br)c(O)c5C(=O)[C@@H]4O)ccc3O[C@@H]2CO)cc(Br)c1O` : what is it?
Output: 0.079

Task: What value of measured FRAP [Fe2+eq] is listed for `COc1cc([C@@H]2Oc3cc([C@H]4Oc5c(Br)c(O)cc(O)c5C(=O)[C@@H]4O)ccc3O[C@H]2CO)ccc1O` ?
Output: 0.056

###

Assay: Ferric reducing antioxidant power (FRAP)
Conditions: Fe2+ equivalents
Method: To further elucidate how halogenation affects other properties of the flavonoids studied, their 2,2′-azino-bis-(3-ethylbenzothiazoline-6-sulfonic acid) cation (ABTS) and 1,1-diphenyl-2-picrylhydrazyl (DPPH) radical scavenging, the Folin–Ciocalteu reagent (FCR) reducing, the ferric-reducing antioxidant power (FRAP), and the anti-lipoperoxidation activities were evaluated by in vitro methods (Supplementary Information Tables S1 and S2). […]
Decision: FRAP [Fe2+eq] >= 0.08 Fe2+eq yields satisfied, all other cases yield not satisfied.

Task: Could you please find out whether O=c1c(O)c(-c2ccc(O)c(O)c2)oc2c(Br)c(O)cc(O)c12 [compound 9, 8-bromoquercetin] has FRAP [Fe2+eq] that meets 0.08 Fe2+eq or exceeds it?
Output: satisfied

Task: Test whether the compound COc1cc([C@H]2Oc3cc([C@H]4Oc5c(Br)c(O)c(Br)c(O)c5C(=O)[C@@H]4O)ccc3O[C@@H]2CO)ccc1O [compound 12, 6,8-dibromosilybin A] records FRAP [Fe2+eq] of 0.08 Fe2+eq or higher.
Output: satisfied

Task: Is reported FRAP [Fe2+eq] greater than or equal to 0.08 Fe2+eq here: COc1cc([C@@H]2Oc3c(O)cc([C@H]4Oc5cc(O)cc(O)c5C(=O)[C@@H]4O)cc3[C@H]2CO)ccc1O [compound 5, silychristin A, reference compound]
Output: satisfied

Task: Quick check, FRAP [Fe2+eq] >= 0.08 Fe2+eq? O=C1c2c(O)cc(O)cc2OC(c2ccc(O)c(O)c2)C1O (centres unmarked) [compound 1, taxifolin, reference compound]
Output: satisfied

Task: Test whether the compound COc1cc([C@@H]2Oc3c(O)cc(-c4oc5cc(O)cc(O)c5c(=O)c4O)cc3[C@H]2CO)ccc1O [compound 6, 2,3-dehydrosilychristin A, reference compound] records FRAP [Fe2+eq] of 0.08 Fe2+eq or higher.
Output: satisfied

Task: # bool: FRAP [Fe2+eq] of COc1cc([C@@H]2Oc3cc([C@H]4Oc5c(I)c(O)c(I)c(O)c5C(=O)[C@@H]4O)ccc3O[C@H]2CO)ccc1O [compound 26, 6,8-diiodosilybin B] >= 0.08 Fe2+eq
Output: not satisfied

Task: Reported FRAP [Fe2+eq] reaches at least 0.08 Fe2+eq for COc1cc(C2Oc3cc(-c4oc5c(Br)c(O)cc(O)c5c(=O)c4O)ccc3OC2CO)ccc1O (centres unmarked) [compound 16, 8-bromo-2,3-dehydrosilybin AB] ?
Output: satisfied

Task: Threshold query (FRAP [Fe2+eq] >= 0.08 Fe2+eq) on COc1cc([C@@H]2Oc3c(O)cc([C@H]4Oc5c(Br)c(O)c(Br)c(O)c5C(=O)[C@@H]4O)cc3[C@H]2CO)ccc1O [compound 15, 6,8-Dibromosilychristin A]
Output: satisfied

Task: Can O=c1c(O)c(-c2ccc(O)c(O)c2)oc2c(Br)c(O)c(Br)c(O)c12 [compound 10, 6,8-dibromoquercetin] be said to have FRAP [Fe2+eq] at or above 0.08 Fe2+eq?
Output: satisfied

Task: Evaluate O=c1c(O)c(-c2ccc(O)c(O)c2)oc2cc(O)cc(O)c12 [compound 2, quercetin, reference compound] : FRAP [Fe2+eq] at minimum 0.08 Fe2+eq?
Output: satisfied

Task: Does the reported FRAP [Fe2+eq] for COc1cc([C@H]2Oc3cc([C@H]4Oc5c(Br)c(O)cc(O)c5C(=O)[C@@H]4O)ccc3O[C@@H]2CO)ccc1O [compound 19, 8-bromosilybin A] fall at or above the 0.08 Fe2+eq mark?
Output: not satisfied

Task: Does the reported FRAP [Fe2+eq] for COc1cc([C@H]2Oc3cc([C@H]4Oc5c(I)c(O)c(I)c(O)c5C(=O)[C@@H]4O)ccc3O[C@@H]2CO)ccc1O [compound 25, 6,8-diiodosilybin A] fall at or above the 0.08 Fe2+eq mark?
Output: not satisfied

Task: Assess whether reported FRAP [Fe2+eq] for COc1cc([C@@H]2Oc3cc([C@H]4Oc5cc(O)c(Br)c(O)c5C(=O)[C@@H]4O)ccc3O[C@H]2CO)ccc1O [compound 13, 6-Bromosilybin B] sits at 0.08 Fe2+eq or higher.
Output: not satisfied

Task: # bool: FRAP [Fe2+eq] of COc1cc([C@@H]2Oc3c(O)cc([C@H]4Oc5c(I)c(O)c(I)c(O)c5C(=O)[C@@H]4O)cc3[C@H]2CO)ccc1O [compound 27, 6,8-diiodosilychristin A] >= 0.08 Fe2+eq
Output: satisfied

Task: Determine whether this compound has FRAP [Fe2+eq] no lower than 0.08 Fe2+eq: COc1cc([C@@H]2Oc3cc([C@H]4Oc5cc(O)c(Cl)c(O)c5C(=O)[C@@H]4O)ccc3O[C@H]2CO)ccc1O [compound 28, 6-Chlorosilybin B]
Output: not satisfied

Task: Does [Fe+2] [Fe2+, reference compound] have a reported FRAP [Fe2+eq] of at least 0.08 Fe2+eq?
Output: satisfied

Task: Hi team, for COc1cc([C@@H]2Oc3cc([C@H]4Oc5c(Br)c(O)c(Br)c(O)c5C(=O)[C@@H]4O)ccc3O[C@H]2CO)cc(Br)c1O [compound 22, 6,8,21-tribromosilybin B] , is the recorded FRAP [Fe2+eq] at or above 0.08 Fe2+eq?
Output: not satisfied

Task: Form field: FRAP [Fe2+eq] at least 0.08 Fe2+eq? Entry: COc1cc([C@@H]2Oc3c(O)cc(-c4oc5c(Br)c(O)cc(O)c5c(=O)c4O)cc3[C@H]2CO)ccc1O [compound 18, 8-Bromo-2,3-dehydrosilychristin A]
Output: satisfied

Task: Kindly determine if FRAP [Fe2+eq] recorded for O=C1c2c(cc(O)c(Br)c2O)O[C@H](c2ccc(O)c(O)c2)[C@H]1O [compound 7, 6-Bromotaxifolin] is above or exactly 0.08 Fe2+eq.
Output: satisfied

Task: Could you please find out whether COc1cc([C@H]2Oc3cc([C@H]4Oc5cc(O)cc(O)c5C(=O)[C@@H]4O)ccc3O[C@@H]2CO)ccc1O [3a, silybin A, reference compound] has FRAP [Fe2+eq] that meets 0.08 Fe2+eq or exceeds it?
Output: not satisfied

###

System: Vibrio campbellii BAA 1119 (AI-2)
Assay: Viability of the quorum-sensing reporter culture (resazurin assay), AI-2 strain
Format: cell-based
Conditions: BAA1119, V. campbellii BAA 1119, resazurin assay, read-out: IC50 (concentration that halved the viability)
pIC50: −log10 of the molar value.
For each entry below, report its pIC50 value.

Task: # pIC50 lookup, item COc1cc([C@@H]2Oc3c(O)cc([C@H]4Oc5cc(O)cc(O)c5C(=O)[C@@H]4O)cc3[C@H]2CO)ccc1O [compound 5, silychristin A, reference compound]
Output: < 3.70

Task: Which measured pIC50 value corresponds to `COc1cc([C@@H]2Oc3c(O)cc([C@H]4Oc5c(Br)c(O)c(Br)c(O)c5C(=O)[C@@H]4O)cc3[C@H]2CO)ccc1O` ?
Output: < 3.70

Task: Which pIC50 is reported for this compound? `COc1cc([C@@H]2Oc3cc([C@H]4Oc5cc(O)c(Cl)c(O)c5C(=O)[C@@H]4O)ccc3O[C@H]2CO)ccc1O`
Output: < 3.70
